molecular target: PI3K gamma (Homo sapiens)
Sequence (P48736 144-1102 limits assumed): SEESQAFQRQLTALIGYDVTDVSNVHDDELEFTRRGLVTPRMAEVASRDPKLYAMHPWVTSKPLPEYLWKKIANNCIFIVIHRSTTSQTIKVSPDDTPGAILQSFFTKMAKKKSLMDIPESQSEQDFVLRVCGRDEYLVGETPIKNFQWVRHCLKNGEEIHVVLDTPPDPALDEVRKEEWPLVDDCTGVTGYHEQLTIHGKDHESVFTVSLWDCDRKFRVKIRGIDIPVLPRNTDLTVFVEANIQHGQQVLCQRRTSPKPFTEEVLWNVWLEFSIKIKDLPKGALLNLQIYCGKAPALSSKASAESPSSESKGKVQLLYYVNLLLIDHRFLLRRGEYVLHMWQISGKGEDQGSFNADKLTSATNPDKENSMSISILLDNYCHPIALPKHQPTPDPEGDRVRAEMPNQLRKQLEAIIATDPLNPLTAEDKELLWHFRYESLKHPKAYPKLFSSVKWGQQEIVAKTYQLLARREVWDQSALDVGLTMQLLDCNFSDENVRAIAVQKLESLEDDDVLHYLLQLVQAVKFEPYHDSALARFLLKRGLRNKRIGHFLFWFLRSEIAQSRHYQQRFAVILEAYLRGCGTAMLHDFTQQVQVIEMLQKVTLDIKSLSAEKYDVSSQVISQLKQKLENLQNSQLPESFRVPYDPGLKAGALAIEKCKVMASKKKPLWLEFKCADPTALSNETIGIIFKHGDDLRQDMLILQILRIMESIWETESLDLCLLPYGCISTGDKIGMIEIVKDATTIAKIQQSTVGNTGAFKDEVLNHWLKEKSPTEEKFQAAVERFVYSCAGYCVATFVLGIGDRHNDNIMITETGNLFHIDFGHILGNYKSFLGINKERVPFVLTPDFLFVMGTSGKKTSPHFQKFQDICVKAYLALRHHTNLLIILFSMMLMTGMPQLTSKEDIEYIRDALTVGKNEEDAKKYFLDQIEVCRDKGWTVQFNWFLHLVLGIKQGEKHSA
IC50 strictly under 2000 nM means 1 (yes); at 2000 nM or over means 0 (no).

1) CC(C)(C)OC(=O)NCCOc1ccc(-c2ccc3ncc(-c4cnc(N)c(C(F)(F)F)c4)n3n2)cc1 [Example 73]: 0 (no)
2) COc1ccc(-c2ccc3ncc(-c4cnc(N)c(C(F)(F)F)c4)n3n2)cc1 [Example 46]: 0 (no)
3) COc1cc(-c2cnc3ccc(-c4cnc(N)c(C(F)(F)F)c4)nn23)c(F)cc1C(=O)NCCN1CCOCC1 [Example 158]: 0 (no)
4) COc1ccc(-c2ccc3ncc(-c4cnc5[nH]ccc5c4)n3n2)cc1 [Example 47]: 0 (no)
5) Nc1ncc(-c2ccc3ncc(-c4ccc(C(=O)NCCN5CCS(=O)(=O)CC5)cc4)n3n2)cc1C(F)(F)F [Example 154]: 1 (yes)
6) CC(=O)NCCn1cc(-c2ccc3ncc(-c4cnc(N)c(C(F)(F)F)c4)n3n2)ccc1=O [Example 76]: 0 (no)
7) COC(=O)NC1(COc2ccc(-c3ccc4ncc(-c5cnc(N)c(C(F)(F)F)c5)n4n3)cc2)COC1 [Example 148]: 1 (yes)
8) CC(C)(C)OC(=O)N1CCC(Oc2ccc(-c3ccc4ncc(-c5cnc(N)c(C(F)(F)F)c5)n4n3)cc2)CC1 [Example 162]: 0 (no)
9) C=CS(=O)(=O)c1ccc(-c2cnc3ccc(-c4cnc(N)c(C(F)(F)F)c4)nn23)cc1 [Example 104]: 1 (yes)
10) Nc1ncc(-c2cnc3ccc(-c4ccc(OCCN5CCCC5=O)c(F)c4)nn23)cc1C(F)(F)F [Example 94]: 0 (no)
11) Nc1ncc(-c2ccc3ncc(-c4ccc(S(=O)(=O)NCCCN5CCOCC5)cc4)n3n2)cc1C(F)(F)F [Example 134]: 0 (no)
12) COc1cc(-c2ccc3ncc(-c4cnc(N)c(C(F)(F)F)c4)n3n2)ccc1OCCN1CCCC1=O [Example 103]: 1 (yes)
13) Nc1ncc(-c2cnc3ccc(-c4ccc5c(c4)OCO5)nn23)cc1C(F)(F)F [Example 155]: 0 (no)

====

molecular target: PI3K delta (Homo sapiens); construct: for the full-length p110-d subunit are generated and fused by overlapping PCR; His tag (C); Tn5 (Trichoplusia ni) or TiniPro insect cells; experiment: PI3 kinase assay (Kinase-Glo luminescence), PI3K delta; settings: Enzymatic Data; read-out: PI3K delta IC50 [umol]
Sequence (O00329 with tags, fused parts or gaps limits assumed): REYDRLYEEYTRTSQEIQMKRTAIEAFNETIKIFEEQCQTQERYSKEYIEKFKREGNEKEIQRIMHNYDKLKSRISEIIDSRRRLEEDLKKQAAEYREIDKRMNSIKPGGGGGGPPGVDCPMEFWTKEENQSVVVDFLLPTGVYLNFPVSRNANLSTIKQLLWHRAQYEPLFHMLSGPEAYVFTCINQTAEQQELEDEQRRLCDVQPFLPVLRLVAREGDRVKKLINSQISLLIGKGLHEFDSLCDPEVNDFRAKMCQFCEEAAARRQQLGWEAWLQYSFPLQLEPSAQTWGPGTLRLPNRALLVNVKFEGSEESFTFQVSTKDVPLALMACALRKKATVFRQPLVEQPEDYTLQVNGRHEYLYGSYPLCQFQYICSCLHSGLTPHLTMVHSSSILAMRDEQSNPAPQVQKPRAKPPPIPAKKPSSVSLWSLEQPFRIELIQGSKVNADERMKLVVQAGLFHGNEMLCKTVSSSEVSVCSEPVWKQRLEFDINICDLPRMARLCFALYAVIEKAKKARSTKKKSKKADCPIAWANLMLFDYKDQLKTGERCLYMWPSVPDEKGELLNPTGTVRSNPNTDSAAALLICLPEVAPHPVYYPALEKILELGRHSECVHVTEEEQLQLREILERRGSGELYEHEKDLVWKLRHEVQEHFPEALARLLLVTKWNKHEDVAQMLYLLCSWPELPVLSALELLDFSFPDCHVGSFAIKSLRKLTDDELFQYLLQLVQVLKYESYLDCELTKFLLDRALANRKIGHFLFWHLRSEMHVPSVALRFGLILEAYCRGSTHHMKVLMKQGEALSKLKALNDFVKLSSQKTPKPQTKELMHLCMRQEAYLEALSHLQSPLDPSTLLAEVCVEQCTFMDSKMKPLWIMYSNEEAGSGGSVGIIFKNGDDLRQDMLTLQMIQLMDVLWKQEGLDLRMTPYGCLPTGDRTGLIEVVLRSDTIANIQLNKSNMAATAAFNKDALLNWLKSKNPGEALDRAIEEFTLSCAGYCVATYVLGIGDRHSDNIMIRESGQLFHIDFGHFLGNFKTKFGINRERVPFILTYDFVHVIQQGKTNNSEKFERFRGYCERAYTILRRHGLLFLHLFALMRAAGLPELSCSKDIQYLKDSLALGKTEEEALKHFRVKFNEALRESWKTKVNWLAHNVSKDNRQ
# key: entry, value: IC50
Observable: IC50

1) CC(C)(C)OC(=O)NCCn1cc(-c2ccc3ncc(-c4cnc(N)c(C(F)(F)F)c4)n3n2)ccc1=O [Example 69]: 156 nM
2) Nc1ncc(-c2cnc3ccc(-c4ccc(OCCCN5CCCC5=O)cc4)nn23)cc1C(F)(F)F [Example 89]: 88 nM
3) Nc1ncc(-c2cnc3ccc(-c4ccc(OCCCN5CCNC5=O)cc4)nn23)cc1C(F)(F)F [Example 163]: 86 nM
